Let's look at some compounds and their measured melting point.

Worked set:
COc1cc2nc(-c3n[nH]cc3NC(=O)C3CC3)[nH]c2cc1Cl | 225 to 226 °C
Cc1cc(-c2nc3ccccc3[nH]2)n[nH]1 | 322 to 324 °C

Lookup result for `CSc1cc(-c2nc3ccccc3[nH]2)no1` ; measured melting point: 179 to 181 °C

Lookup result for `CSc1cc(-c2nc3ccccc3[nH]2)n[nH]1` ; measured melting point: 242 °C

Lookup result for `CCOc1cc(-c2nc3ccccc3[nH]2)n[nH]1` ; measured melting point: 217 to 219.5 °C
